Exercise: state measured inhibition at 1 µM for each of the molecules provided.
- Assayed System: hBuChE (Homo sapiens, UniProt P06276)
- Sequence (P06276 29-602): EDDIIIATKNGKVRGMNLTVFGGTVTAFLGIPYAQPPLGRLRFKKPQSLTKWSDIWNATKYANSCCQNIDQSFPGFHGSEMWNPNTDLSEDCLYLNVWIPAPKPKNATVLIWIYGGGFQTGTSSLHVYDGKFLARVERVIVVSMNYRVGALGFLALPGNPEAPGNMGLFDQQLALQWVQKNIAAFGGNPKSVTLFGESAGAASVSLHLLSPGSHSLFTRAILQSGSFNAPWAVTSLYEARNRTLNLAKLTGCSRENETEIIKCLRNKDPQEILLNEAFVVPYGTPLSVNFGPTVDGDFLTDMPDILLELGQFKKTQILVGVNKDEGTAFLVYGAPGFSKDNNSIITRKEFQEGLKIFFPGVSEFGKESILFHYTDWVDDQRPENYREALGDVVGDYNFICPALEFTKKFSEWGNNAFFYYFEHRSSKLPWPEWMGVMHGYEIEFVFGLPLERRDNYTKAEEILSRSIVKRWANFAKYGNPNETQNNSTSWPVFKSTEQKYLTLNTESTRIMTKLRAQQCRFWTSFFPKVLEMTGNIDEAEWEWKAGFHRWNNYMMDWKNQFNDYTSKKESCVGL
- Assay Protocol: Ellman's assay, hBuChE inhibition
- Format: biochemical
- Run Parameters: compound at 1 μM; read-out: inhibition of hBuChE in primary screening
- Experimental: The Ellman’s assay was utilized to assess the inhibitory potential of novel bis(7)-harmine derivatives against hAChE and hBuChE. […] Finally, the activity was measured by adding 150 μL of a solution containing 5,5′−dithiobis (2-nitrobenzoic acid) (DTNB) at a concentration of 0.01 M, followed by measuring absorbance at a wavelength of 415 nm using an Evolution 300 PC UV-Vis Spectrophotometer.
One number for each entry, in %.

Molecule	Obs Value
C=CCn1c2cc(OCCCCOc3ccc4c5ccnc(C)c5n(CC=C)c4c3)ccc2c2ccnc(C)c21 [Compound 4d]	32.9
CCCn1c2cc(OCCCCCCCOc3ccc4c5ccnc(C)c5n(CCC)c4c3)ccc2c2ccnc(C)c21 [Compound 7c]	44.8

Dear reader, for each entry below, please note its inhibition at 1 µM.
1. Cc1nccc2c3ccc(OCCCCCCCOc4ccc5c6ccnc(C)c6n(C)c5c4)cc3n(C)c12 [Compound 7a]
2. Cc1nccc2c3ccc(OCCCCOc4ccc5c6ccnc(C)c6n(C)c5c4)cc3n(C)c12 [Compound 4a]
3. C=CCn1c2cc(OCCCCCOc3ccc4c5ccnc(C)c5n(CC=C)c4c3)ccc2c2ccnc(C)c21 [Compound 5d]
4. C=CCn1c2cc(OCCCCCCCCOc3ccc4c5ccnc(C)c5n(CC=C)c4c3)ccc2c2ccnc(C)c21 [Compound 8d]
5. CCn1c2cc(OCCCCOc3ccc4c5ccnc(C)c5n(CC)c4c3)ccc2c2ccnc(C)c21 [Compound 4b]

[37.3, 30.5, 41.2, 39.8, 36.7]
